Where do the numbers come from? From paper PMC6219668.

test system: panel of nearly 500 cancer cell lines; test: Cancer Cell Line Encyclopedia profiling, 3-day CellTiter-Glo; assay type: cell-based; settings: sknas (autonomic_ganglia); read-out: IC50
pIC50: −log10 of the molar value.
Observable: pIC50

>>> df
                                   molecule     val
0  CC(=O)c1c(C)c2cnc(Nc3ccc(N4CCNCC4)cn3)nc2n(C2CCCC2)c1=O [Palbociblib]  < 5.10

---

system: panel of nearly 500 cancer cell lines; assay: Cancer Cell Line Encyclopedia profiling, 3-day CellTiter-Glo; format: cell-based; settings: Homo sapiens, KYSE-450
Observable: IC50

In [3]: df
Out[3]:
                                   compound     val
0  CN(C)C(=O)c1cc2cnc(Nc3ccc(N4CCNCC4)cn3)nc2n1C1CCCC1 [Ribociclib]  > 8 µM
